# System: NCI-H292 lung cancer cells
# Assay Name: FDA drug screening, complete media vs cholesterol-free media with simvastatin (TABLE 2)
# Assay type: cell-based, human
# Measurement Conditions: complete media minus cholesterol-free media + simvastatin; >0 enhanced anti-cancer activity, about 0 neutral, <0 antagonist
Structures can show the parent of a compound that is named as a salt.
# note: boundary value 0.09 maps to n; Difference below it maps to y

| Molecule | Assigned Class |
| --- | --- |
| CN(C)C(=N)N=C(N)N [Metformin (hydrochloride)] | y |
| COc1ccc2cc3[n+](cc2c1OC)CCc1cc2c(cc1-3)OCO2.[Cl-] [Berberine (chloride)] | y |
| CCN(CC)C(=O)c1cccnc1 [Nikethamide] | n |
| CO/N=C(\C(=O)N[C@@H]1C(=O)N2C(C(=O)O)=C(Cn3ccc(=N)n3CCO)CS[C@H]12)c1csc(N)n1.O=S(=O)(O)O [Cefoselis (sulfate)] | y |
| C#Cc1cccc(Nc2ncnc3cc(OCCOC)c(OCCOC)cc23)c1 [Erlotinib (Hydrochloride)] | y |
| CN(C)C(=O)N[C@H]1CC[C@H](CCN2CCN(c3cccc(Cl)c3Cl)CC2)CC1 [Cariprazine (hydrochloride)] | n |
